protocolNotes: HepG2 hepatoma cell viability loss – plate reader, dry powder, cytotoxicity control, dose response (AID 651947)
condition: ATP luminescence (CellTiter-Glo), 48 h, stronger effect = lower value; at 26 µM unless noted
Entries with a potency or affinity are not part of this list. Results filed as inconclusive are left out. Active and inactive are the calls of the source.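 Rule for the calls: active = luminescence drop in HepG2 cells whose fitted half-effect dose is at most twice the top valid dose; inconclusive = flat curve with 30 to 70% signal loss, or unreliable fit; inactive = the rest.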
Hi there, I'd appreciate the recorded max activity for every entry that follows.

Please indicate max activity recorded for `N#Cc1ccc(CSc2nnc(-c3ccccc3)o2)cc1`
-47.6% [at 3 µM] (inactive)

Supply reported max activity belonging to this compound: `c1ccc(-c2nnc(SCc3ccncc3)o2)cc1`
-21.6% [at 0.38 µM] (inactive)

For the compound `Fc1ccc(CSc2nnc(-c3ccc(Cl)cc3)o2)cc1` , give its reported max activity.
-47.5% [at 12 µM] (inactive)

State its max activity: `CS(=O)(=O)c1ccc(-c2nnc(SCc3ccccc3)o2)cc1`
-40.3% (inactive)

Output measured max activity for this item: `c1ccc(Cn2cc(CSc3nnc(C4CCC4)o3)nn2)cc1`
-18.3% [at 0.38 µM] (inactive)

Return value of max activity for input `Fc1cccc(CSc2nnc(-c3ccccc3)o2)c1` , no commentary.
-9.21% [at 12 µM] (inactive)

Answer with the recorded max activity of `FC(F)(F)Oc1ccc(-c2nnc(SCc3ccccc3)o2)cc1` only.
21.1% [at 12 µM] (inactive)

Output measured max activity for this item: `c1ccc(CSc2nnc(-c3cccs3)o2)cc1`
-27.2% [at 12 µM] (inactive)

Item `c1ccc(CSc2ncc(-c3ccccc3)o2)cc1` : provide max activity
-32.2% [at 0.195 µM] (inactive)

// fetch max activity given entry `c1ccc(CCc2nnc(-c3ccccc3)o2)cc1`
27.6% (inactive)

Please report max activity for the following compound: `c1ccc(CSc2nnc(-c3cnco3)o2)cc1`
-31.7% [at 12 µM] (inactive)

Consider the compound `COc1ccccc1CSc1nnc(-c2ccccc2)o1` and give its recorded max activity.
-56.1% [at 6 µM] (inactive)

Tell us which max activity value is on record for `Fc1ccc(-c2nnc(SCc3ccccn3)o2)cc1`
-30.7% [at 1.6 µM] (inactive)

Quick one: give measured max activity for `COc1ccccc1-c1nnc(SCc2ccccc2)o1`
-18.4% [at 0.195 µM] (inactive)

Answer with the recorded max activity of `Fc1ccccc1-c1nnc(SCc2ccccc2)o1` only.
-29.8% [at 0.195 µM] (inactive)

Complete the entry with the larger activity for `O=S(=O)(Cc1ccccc1)c1nnc(-c2ccccc2)o1`
-24.8% (inactive)

State its max activity: `c1ccc(-c2nnc(SCCN3CCCC3)o2)cc1`
-61.1% [at 0.8 µM] (inactive)

Using known records, supply max activity for `Cc1ccc(-c2nnc(SCc3ccccc3)o2)cc1`
15.2% [at 3 µM] (inactive)

Note down max activity recorded for `CS(=O)(=O)c1ccccc1CSc1nnc(-c2ccccc2)o1`
-12.5% [at 12 µM] (inactive)

Quick one: give measured max activity for `N#Cc1cccc(-c2nnc(SCc3ccccc3)o2)c1`
15.2% (inactive)

Supply max activity value. Item: `N#Cc1ccccc1CSc1nnc(-c2ccccc2)o1`
22.9% [at 3 µM] (inactive)

Give me measured max activity, please, for this compound: `c1ccc(-c2nnc(SCCN3CCOCC3)o2)cc1`
-7.63% [at 0.38 µM] (inactive)

Identify the reported max activity for the following entry. `FC(F)(F)c1cccc(-c2nnc(SCc3ccccc3)o2)c1`
20.7% [at 12 µM] (inactive)

Item `c1ccc(CSc2nnc(-c3ccccn3)o2)cc1` : provide max activity
-20.9% [at 1.6 µM] (inactive)

Give the reported max activity for this compound. `c1ccc(CSc2nnc(C3CCCC3)o2)cc1`
-59.1% [at 6 µM] (inactive)

Read off the recorded max activity for `COc1ccc(-c2nnc(SCc3ccccc3)o2)cc1`
-23.7% [at 6 µM] (inactive)

----------
protocolNotes: HepG2 hepatoma cell viability loss – plate reader, dry powder, cytotoxicity control, dose response (AID 651947)
condition: ATP luminescence (CellTiter-Glo), 48 h, stronger effect = lower value; at 26 µM unless noted
Potency and affinity values are given separately. Results filed as inconclusive are left out. Calls of active or inactive are those of the source.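 The calls were made as follows: active = luminescence drop in HepG2 cells whose fitted half-effect dose is at most twice the top valid dose; inconclusive = flat curve with 30 to 70% signal loss, or unreliable fit; inactive = the rest.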
Kindly supply the reported max activity values for the records listed here.

Give the value of max activity reported for the following: `Clc1cccc(CSc2nnc(-c3ccccc3)o2)c1`
-32.2% [at 0.195 µM] (inactive)

Read off the recorded max activity for `COc1ccc(CSc2nnc(-c3ccc(Cl)cc3)o2)nc1`
20.3% [at 0.8 µM] (inactive)

Look up and state reported max activity for O=S(Cc1cn(-c2ccccc2)nn1)c1nnc(-c2ccc(Cl)cc2)o1 (configuration not stated)
-41.8% [at 12 µM] (inactive)

Quote max activity reported for `FC(F)(F)Oc1cccc(CSc2nnc(-c3ccccc3)o2)c1` please.
19.6% [at 0.38 µM] (inactive)

Determine its reported max activity: `Fc1cccc(-c2nnc(SCc3ccccn3)o2)c1`
26.1% [at 12 µM] (inactive)

Write down max activity measured for item `[O-][n+]1ccccc1CSc1nnc(-c2ccccc2)o1`
-47.8% [at 1.6 µM] (inactive)

Fill in max activity for record `c1ccc(CSc2nnc(-c3cc4ccccc4o3)o2)cc1`
34.2% [at 6 µM] (inactive)

Answer with reported max activity of `Fc1ccc(Cn2cc(CSc3nnc(C4CCCC4)o3)nn2)cc1`
-18.5% [at 6 µM] (inactive)

Answer with the recorded max activity of `c1ccc(-c2ccc(CSc3nnc(-c4ccccc4)o3)cc2)cc1` only.
-30.5% [at 0.38 µM] (inactive)

Give max activity for `Fc1ccc(-c2nnc(SCc3cn(Cc4ccccc4)nn3)o2)cc1`
22.1% [at 3 µM] (inactive)

Specify max activity for `Cc1ccc(CSc2nnc(-c3ccccc3)o2)cc1` and stop.
15.4% [at 3 µM] (inactive)

Kindly indicate its recorded max activity. Item: `c1ccc(CSc2nnc(-c3ccncc3)o2)cc1`
-43.6% [at 0.38 µM] (inactive)

----------
Assignment: determine reported max activity for the given molecules.
protocolNotes: HepG2 hepatoma cell viability loss – plate reader, dry powder, cytotoxicity control, dose response (AID 651947)
condition: ATP luminescence (CellTiter-Glo), 48 h, stronger effect = lower value; at 26 µM unless noted
Potency and affinity values are given separately. Results filed as inconclusive are left out. Active and inactive are the calls of the source.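 The calls were made as follows: active = luminescence drop in HepG2 cells whose fitted half-effect dose is at most twice the top valid dose; inconclusive = flat curve with 30 to 70% signal loss, or unreliable fit; inactive = the rest.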

Respond only with max activity recorded for `CC1(O)CN(CCSc2nnc(-c3ccccc3)o2)C1`
-33.4% [at 0.195 µM] (inactive)

Please report max activity for the following molecule: `FC(F)(F)Oc1cccc(-c2nnc(SCc3ccccc3)o2)c1`
-17.6% [at 0.195 µM] (inactive)

Please report max activity for the following molecule: `FC(F)(F)c1ccc(-c2nnc(SCc3ccccc3)o2)cc1`
17.4% [at 3 µM] (inactive)

Quickly give me recorded max activity for `c1ccc(-c2nnc(SCc3cscn3)o2)cc1`
-61.2% [at 12 µM] (inactive)

Query max activity for `c1ccc(-c2nnc(SCc3ncco3)o2)cc1`
8.06% [at 0.195 µM] (inactive)

Provide one value: measured max activity of `c1ccc(CSc2nnc(-c3ccco3)o2)cc1`
-42.4% [at 6 µM] (inactive)

Tell me measured max activity for `FC(F)(F)Oc1ccccc1-c1nnc(SCc2ccccc2)o1` please.
-9.41% [at 6 µM] (inactive)

Look up and state reported max activity for `Brc1ccc(CSc2nnc(-c3ccccc3)o2)cc1`
32.4% [at 6 µM] (inactive)

Supply measured max activity of `Cc1cccc(CSc2nnc(-c3ccccc3)o2)c1` in your reply.
-51.5% [at 0.195 µM] (inactive)

Item `CS(=O)(=O)c1cccc(-c2nnc(SCc3ccccc3)o2)c1` : provide max activity
26.3% [at 0.8 µM] (inactive)

Name the recorded max activity of the item `c1ccc(COc2nnc(-c3ccccc3)o2)cc1` in your answer.
-50.7% [at 1.6 µM] (inactive)
